Where do these numbers come from? They come from ChEMBL document CHEMBL4376833.

test system: PBMC; experiment: Proinflammatory activity in human PBMC assessed as increase in LPS-stimulated IL1 production at 40 uM incubated for overnight in presence of Pseudomonas aeruginosa PAO1 LPS by ELISA relative to control; assay type: cell-based
Non-standard residues stand in square brackets, D forms with d. Residues, ends and D or L forms follow the SMILES beside them. Dap = NC[C@H](N)C(=O)O
READOUT TYPE: fold change (FC)

>>> recorded_measurement("CC[C@H](C)[C@H](NC(=O)[C@H](CN)NC(=O)[C@@H](NC(=O)[C@H](C)NC(=O)[C@@H](NC(=O)[C@@H](NC(=O)[C@H](CC(C)C)NC(=O)[C@H](CN)NC(=O)[C@@H](N)C(C)C)[C@@H](C)CC)C(C)C)C(C)C)C(=O)N[C@@H](Cc1c[nH]c2ccccc12)C(=O)N[C@@H](CN)C(=O)N[C@@H](CN)C(N)=O (H-V[Dap]LIVAV[Dap]IW[Dap][Dap]-NH2)")
"4 to 8"
